# subjectOfTest: Concanavalin-A (Canavalia ensiformis)
# procedureSummary: ConA small-molecule binders, primary screen, artefact control for SMM control protein annotation, biochemical, small-molecule microarray, Alexa647 label, 635 nm (AID 1127);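 note: z combines 667 nm emission intensity with signal-to-noise across three replicate slides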
# reportedConditions: ConA-A647 binding fluorescence, higher = more signal
assayReadout: composite z-score

compound	measured
C=CC[C@]12N=C(c3ccc(OCCCO)cc3)O[C@H]1c1ccccc1N(C)C2=O	0.989
CC(C)C[C@@H]1NC(=O)[C@H]2C[C@@H](C(=O)NCCCCCC[N+](C)(C)C)[C@@H](c3cccc(OCCO)c3)N2C1=O	0.869
COC(=O)C(CC#Cc1ccc2c(c1)[C@]1(C(=O)N2)[C@H](C(=O)O)[C@H]2C(=O)O[C@H](c3ccccc3)[C@H](c3ccccc3)N2[C@@H]1c1ccccc1OCCO)C(=O)OC	1.15
O=C(CS)NCCCCCCNC(=O)[C@H]1C[C@H]2C(=O)N[C@@H](Cc3ccccc3)C(=O)N2[C@H]1c1cccc(OCCO)c1	0.892
COCCOC(=O)N1C(=O)[C@@]2(c3cc(C#CC4(O)CCCCCC4)ccc31)[C@H](c1ccccc1OCCO)N1[C@H](c3ccccc3)[C@H](c3ccccc3)OC(=O)[C@H]1[C@@H]2C(N)=O	1.15
CCOC(=O)C[C@H]1[C@H](OC(=O)c2ccc(-c3ccccc3)cc2)[C@@H](NC(=O)c2ccc3ccccc3c2)c2cc(OCCCO)ccc2N1C(=O)c1ccc2ccccc2n1	0.954
CC=CC(O)C1C=CC2C(=O)N(c3ccccc3)C(=O)C2N1Nc1ccc([N+](=O)[O-])cc1 (configuration not stated)	0.217

###

# subjectOfTest: Pro-neuregulin-1, membrane-bound isoform (Homo sapiens)
# procedureSummary: NRG1 binders on small-molecule microarrays, primary screen, psychiatric disease protein project, biochemical, small-molecule microarray, fluorescence 635/667 (AID 1075);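 note: score combines 667 nm spot fluorescence with signal to noise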
# reportedConditions: NRG1 binding, 635 nm fluorescence, higher = more signal
So basically: composite z-score at 0.9 or higher? That is met. Lower than 0.9? That is not met.

compound	assignedClass
CC(C)C(=C=CC[C@H](O)c1ccc(OCCO)cc1)C[C@H](O)c1cc(Cl)cc(Cl)c1O	met
C=CCOC(=O)[C@@H]1[C@H]2C(=O)O[C@H](c3ccccc3)[C@H](c3ccccc3)N2[C@H](c2ccc(OCCOC(=O)[C@H]3C[C@H]4C(=O)N[C@@H](CCCCNC(C)=O)C(=O)N4[C@H]3c3cccc(OCCO)c3)cc2)[C@@]12C(=O)Nc1ccc(I)cc12	not met
CCOc1cc(C(O)C2C=CC3C(=O)N(C)C(=O)C3N2N2CCCCC2)ccc1O (stereo not drawn)	met
COc1ccc([Si](C)(C)[C@H]2[C@H](CC(=O)N3Cc4ccccc4C[C@H]3CO)O[C@@]3(C(=O)N(Cc4cccc(N5CCCCC5=O)c4)c4ccccc43)[C@@H]2C)cc1	not met
C=CCOC(=O)[C@H]1[C@@H]2C(=O)O[C@@H](c3ccccc3)[C@@H](c3ccccc3)N2[C@@H](c2ccc(OCCOC(=O)[C@H]3C[C@H]4C(=O)N[C@@H](Cc5ccccc5)C(=O)N4[C@H]3c3cccc(OCCO)c3)cc2)[C@]12C(=O)Nc1ccc(I)cc12	met
COCCCNC(=O)[C@@]1(Sc2ccc(C)cc2)CC(=O)N(Cc2cc(C(F)(F)F)cc(C(F)(F)F)c2)[C@@H]1c1ccc(CO)cc1	met
CCOC(=O)C[C@H]1[C@H](OC(=O)c2ccc(-c3ccccc3)cc2)[C@@H](NC(=O)c2ccc3ccccc3c2)c2cc(OCCCO)ccc2N1C(=O)c1ccc2ccccc2n1	not met
CC(C)(C)OC(=O)CC[C@]1(C(=O)O)N=C(c2ccc(OCCCO)cc2)O[C@H]1c1ccccc1	not met
CC(C)(C)OC(=O)CC[C@@]1(C(=O)O)N=C(c2ccc(OCCCO)cc2)O[C@@H]1c1ccccc1	met
CCCC=C(CCC)[C@@H](NP(=O)(c1ccccc1)c1ccccc1)c1ccc(C(F)(F)F)cc1	met
CC(C)C(CO)N1C(=O)[C@]2(C)C3C(=O)OCCC/C=C\[C@H]3OC23C=CCN(c2ccc(Cl)cc2)C(=O)[C@@H]13 (stereo partly drawn)	not met
CC(C)N1CC=CC23O[C@@H]4C=CCOC(=O)[C@@H]4[C@H]2C(=O)N(C(C)CO)[C@@H]3C1=O (stereo partly drawn)	met
C[C@]12C(=O)N(CCCCCCO)[C@@H]3C(=O)N(c4ccc(Cl)cc4)CC=CC31O[C@@H]1/C=C\CCCOC(=O)C12 (stereo partly drawn)	not met
